experiment: Water solubility
# Solubility per entry

compound: CC(C)c1ccccc1Sc1ccc(/C=C/C(=O)N2CCNC(CO)C2)cc1[N+](=O)[O-] (configuration not stated)
recorded.measurement: 5 µg/mL

Consider the additional compound presented here.
Incoming: Identify measured Solubility associated with CC(=O)N1CCN(C(=O)/C=C/c2ccc(Sc3ccccc3C(C)C)c([N+](=O)[O-])c2)CC1 [A-286982]
Outgoing: < 1 µg/mL

====

test system: Canis familiaris; assay: Cmax value after po dose in dog; details: in vivo
property.measured: Cmax (ng/mL)
Form entry: value (ng/mL) — number only.

Incoming: Please report the measured Cmax for O=C(O)C1CCCN(C(=O)/C=C/c2ccc(Sc3ccc4c(c3)OCCO4)c(C(F)(F)F)c2)C1 (stereo unspecified)
Outgoing: 3700

====

assay: Oral bioavailability in rat; assay type: ADME, organism-based; conditions: in vivo
property.measured: bioavailability (%)
// note: answer is a bare numeric in %

Example entries and their recorded answers appear below.
compound: CC(C)c1ccccc1Sc1ccc(/C=C/C(=O)N2CCNC(CO)C2)cc1[N+](=O)[O-] (centres undefined)
bioavailability (%): 0
//
compound: CC(C)c1ccccc1Sc1ccc(/C=C/C(=O)N2CCCC(C(=O)O)C2)cc1[N+](=O)[O-] (centres undefined)
bioavailability (%): 19
//
compound: CC(C)c1ccccc1Sc1ccc(/C=C/C(=O)N2CCC(C(=O)O)CC2)cc1[N+](=O)[O-]
bioavailability (%): 21

Incoming: Identify measured bioavailability corresponding to `O=C(O)C1CCN(C(=O)/C=C/c2ccc(Sc3ccc4c(c3)OCCO4)c(C(F)(F)F)c2)CC1`
Outgoing: 39

====

system: Rattus norvegicus; assay: Cmax value after po dose in rat; type: ADME, organism-based; parameters: route oral; details: in vivo
Response field label: string, one of class 1 (Cmax strictly below 0.5 ug m l-1) or class 0.

Check out these entries, answers already filled in.
compound: O=C(O)C1CCN(C(=O)/C=C/c2ccc(Sc3ccc4c(c3)OCCO4)c(C(F)(F)F)c2)CC1
system.tested: Rattus norvegicus
discrete.label: class 0
//
compound: CC(C)c1ccccc1Sc1ccc(/C=C/C(=O)N2CCCC(C(=O)O)C2)cc1[N+](=O)[O-] (stereo not given)
system.tested: Rattus norvegicus
discrete.label: class 1
//
compound: O=C(O)C1CCCN(C(=O)/C=C/c2ccc(Sc3ccc4c(c3)OCCO4)c(C(F)(F)F)c2)C1 (stereo not given)
system.tested: Rattus norvegicus
discrete.label: class 0

Incoming: Is 0.5 ug m l-1 strictly greater than the compound's reported Cmax? compound: CC(C)c1ccccc1Sc1ccc(/C=C/C(=O)N2CCNC(CO)C2)cc1[N+](=O)[O-] (stereo not given)
Outgoing: class 1

====

experiment: Clearance after iv dose
property.measured: clearance (mL/min/kg)
Please respond with the number in mL/min/kg and leave the unit unwritten.

Incoming: For the compound CC(=O)N1CCN(C(=O)/C=C/c2ccc(Sc3ccccc3C(C)C)c([N+](=O)[O-])c2)CC1 [A-286982] , give its measured clearance value.
Outgoing: 45

====

target: Intercellular adhesion molecule (ICAM-1), Integrin alpha-L/beta-2 (Homo sapiens, UniProt P05107+P20701); assay: Ability to antagonise the Leukocyte function-associated Antigen-1/ Intracellular Adhesion molecule-1 interaction (LFA-1/ICAM-1)
Sequence (P20701 whole entry): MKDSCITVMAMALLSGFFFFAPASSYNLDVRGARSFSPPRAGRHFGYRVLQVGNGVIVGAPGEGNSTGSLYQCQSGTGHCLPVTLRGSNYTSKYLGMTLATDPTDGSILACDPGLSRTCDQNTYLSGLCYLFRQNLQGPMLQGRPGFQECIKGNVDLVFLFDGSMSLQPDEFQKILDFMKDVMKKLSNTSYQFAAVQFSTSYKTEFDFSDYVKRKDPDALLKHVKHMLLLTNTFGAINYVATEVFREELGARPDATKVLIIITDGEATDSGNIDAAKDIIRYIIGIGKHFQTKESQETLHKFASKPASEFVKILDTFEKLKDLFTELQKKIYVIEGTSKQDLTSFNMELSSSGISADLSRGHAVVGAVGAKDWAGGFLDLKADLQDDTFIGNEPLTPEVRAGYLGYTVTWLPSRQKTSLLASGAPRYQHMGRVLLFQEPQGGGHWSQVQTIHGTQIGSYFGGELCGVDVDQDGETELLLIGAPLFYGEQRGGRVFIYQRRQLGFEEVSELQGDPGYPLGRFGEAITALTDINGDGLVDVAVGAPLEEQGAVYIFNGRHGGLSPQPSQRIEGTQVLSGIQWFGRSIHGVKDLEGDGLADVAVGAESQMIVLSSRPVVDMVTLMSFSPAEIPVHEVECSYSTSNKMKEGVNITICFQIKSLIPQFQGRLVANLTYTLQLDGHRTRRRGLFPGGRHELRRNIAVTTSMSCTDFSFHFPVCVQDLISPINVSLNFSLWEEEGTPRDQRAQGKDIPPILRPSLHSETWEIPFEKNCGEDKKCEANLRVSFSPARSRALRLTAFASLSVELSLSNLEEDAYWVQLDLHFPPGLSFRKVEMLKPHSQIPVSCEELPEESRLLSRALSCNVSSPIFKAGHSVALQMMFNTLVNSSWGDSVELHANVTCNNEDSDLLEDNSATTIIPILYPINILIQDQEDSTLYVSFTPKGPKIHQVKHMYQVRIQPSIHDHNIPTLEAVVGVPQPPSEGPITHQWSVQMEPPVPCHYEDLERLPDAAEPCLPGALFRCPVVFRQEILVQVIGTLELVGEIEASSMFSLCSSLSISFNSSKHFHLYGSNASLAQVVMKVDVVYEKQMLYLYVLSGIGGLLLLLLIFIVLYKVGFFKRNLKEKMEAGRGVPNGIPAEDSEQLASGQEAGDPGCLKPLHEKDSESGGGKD
Sequence (P05362 whole entry, further chain): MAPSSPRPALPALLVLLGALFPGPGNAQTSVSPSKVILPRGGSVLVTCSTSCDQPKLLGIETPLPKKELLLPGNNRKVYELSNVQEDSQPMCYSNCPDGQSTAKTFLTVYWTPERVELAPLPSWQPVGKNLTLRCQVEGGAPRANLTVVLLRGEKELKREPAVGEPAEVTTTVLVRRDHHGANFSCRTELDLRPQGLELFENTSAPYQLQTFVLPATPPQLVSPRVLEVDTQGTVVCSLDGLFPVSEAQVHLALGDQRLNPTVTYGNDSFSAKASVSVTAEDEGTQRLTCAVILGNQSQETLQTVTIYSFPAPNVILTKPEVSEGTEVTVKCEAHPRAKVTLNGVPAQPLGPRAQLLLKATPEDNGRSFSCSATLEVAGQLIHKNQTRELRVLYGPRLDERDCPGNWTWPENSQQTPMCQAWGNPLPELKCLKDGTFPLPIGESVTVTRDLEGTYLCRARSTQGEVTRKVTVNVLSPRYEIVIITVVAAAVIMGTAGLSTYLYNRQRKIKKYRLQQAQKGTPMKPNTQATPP
Sequence (P05107 whole entry): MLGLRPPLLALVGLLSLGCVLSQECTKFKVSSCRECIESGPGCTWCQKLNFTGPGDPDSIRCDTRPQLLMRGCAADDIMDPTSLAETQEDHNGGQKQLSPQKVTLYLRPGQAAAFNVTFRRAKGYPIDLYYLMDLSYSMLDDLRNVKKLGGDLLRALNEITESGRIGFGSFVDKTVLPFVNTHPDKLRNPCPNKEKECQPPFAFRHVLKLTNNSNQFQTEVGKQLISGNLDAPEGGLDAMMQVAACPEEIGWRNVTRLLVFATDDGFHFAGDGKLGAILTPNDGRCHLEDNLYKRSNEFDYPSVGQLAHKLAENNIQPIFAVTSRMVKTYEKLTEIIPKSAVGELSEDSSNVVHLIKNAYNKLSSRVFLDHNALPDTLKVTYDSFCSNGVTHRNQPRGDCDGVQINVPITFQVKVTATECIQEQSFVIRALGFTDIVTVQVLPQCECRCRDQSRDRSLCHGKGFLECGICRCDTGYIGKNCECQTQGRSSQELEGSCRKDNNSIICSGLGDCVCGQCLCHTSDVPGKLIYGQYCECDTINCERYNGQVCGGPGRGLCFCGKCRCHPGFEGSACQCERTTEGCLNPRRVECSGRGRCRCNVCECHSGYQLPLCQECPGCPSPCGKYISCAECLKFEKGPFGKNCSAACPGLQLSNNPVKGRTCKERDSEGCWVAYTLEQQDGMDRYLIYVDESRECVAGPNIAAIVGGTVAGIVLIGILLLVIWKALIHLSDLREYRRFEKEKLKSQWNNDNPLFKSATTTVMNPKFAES
property.measured: IC50 (nM)
Give a bare numeral; the unit nM is implied.

Some molecules with known IC50 results, for comparison:
molecule: CC(C)c1ccccc1Sc1ccc(/C=C/C(=O)N2CCNCC2)cc1[N+](=O)[O-]
units.label: nM
IC50: 450
//
molecule: CC(C)c1ccccc1Sc1ccc(/C=C/C(=O)N2CCC(C(=O)O)CC2)cc1[N+](=O)[O-]
units.label: nM
IC50: 31
//
molecule: CNC(=O)N1CCN(C(=O)/C=C/c2ccc(Sc3ccccc3C(C)C)c([N+](=O)[O-])c2)CC1
units.label: nM
IC50: 25
//
molecule: CC(C)c1ccccc1Sc1ccc(/C=C/C(=O)N2CCC3(CC2)OCCO3)cc1[N+](=O)[O-]
units.label: nM
IC50: 55

# ---- query molecule ----
Incoming: Annotate the molecule CC(C)c1ccccc1Sc1ccc(/C=C/C(=O)N2CC=CC2C(=O)O)cc1C(F)(F)F (stereo not given) with its measured IC50.
Outgoing: 130
